Source: ChEMBL document CHEMBL1145012

Reported values of inhibition for individual entries
- measured-target: 5-hydroxytryptamine receptor 4 (Cavia porcellus)
- run-description: Ability to displace [3H]GR-113808 from 5-hydroxytryptamine 4 receptor at concentration of 10e-8 M in guinea pig
Give your result as the value with the unit written after it.

Examples with their reported inhibition follow.
record-smiles | inhibition
CCCCCN1CCC(COc2nc3ccccc3c3c2CCCN3)CC1 | 51%
CCCCN1CCC(COc2nc3ccc(Cl)cc3c3c2CCCCN3)CC1 | 0%
CCN1CCC(COc2nc3ccccc3c3c2CCCN3)CC1 | 55%
CCCN1CCC(COc2nc3ccccc3c3c2CCCCN3)CC1 | 55%
CCCN1CCC(COc2nc3ccc(Cl)cc3c3c2CCCN3)CC1 | 0%
CCCN1CCC(COc2nc3cc(Cl)ccc3c3c2CCCCN3)CC1 | 0%
c1ccc2c3c(c(OCC4CCNCC4)nc2c1)CCCN3 | 24%
CCN1CCC(COc2nc3ccccc3c3c2CCCCN3)CC1 | 51%

Per the records, this compound ( CCCN1CCC(COc2nc3ccc(Cl)cc3c3c2CCCCN3)CC1 ) has inhibition equal to 5%

Per the records, this compound ( CCCCN1CCC(COc2nc3ccc(Cl)cc3c3c2CCCN3)CC1 ) has inhibition equal to 2%
